Target: T1, canine PD-1 protein amino acids 25-168 with His tag (canine, UniProt A0A090BAM7 25-168)
T1 construct: Expressed in Expi293F cells; used as immunogen and as antigen in ELISA and Octet; also called PD-1 His
T1 sequence (A0A090BAM7 entry or part of it limits assumed): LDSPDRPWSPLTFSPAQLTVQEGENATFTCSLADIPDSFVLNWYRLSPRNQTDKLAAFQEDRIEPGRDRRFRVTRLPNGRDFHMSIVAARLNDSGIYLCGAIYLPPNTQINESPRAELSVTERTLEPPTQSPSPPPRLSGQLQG
Assay: Octet BLI, supernatant captured by anti-mouse IgG Fc, PD-1 His 20 nM
parameter-measured: kon (M⁻¹ s⁻¹)
One number for each entry, in M⁻¹ s⁻¹.

For orientation, consider the following solved cases.
>  <binder>
PD-1 A-M3 (antibody, mouse IgG1, V domains shown, Mouse IgG1 kappa, hybridoma supernatant; also called 4G01) VH: EVRLQQSGAELVKPGASVKLSCTASGFNIKDTYLHWLKERPEQGLEWIGRIDPAIGNTRYDPKFQVKATITADTSSNTAYLQLSSLTSEDSAVYYCARGFYGMDYWGQGTSVTVSS VL: QIVLTQSPAIMSASPGEKVTMTCSASSSVSYMFWYQQKPGSSPRLWIYDTSNLVSGVPARFSGSRSGTSYSLTISSMEAEDAATYYCQQYSGYPYTFGGGTKLEIK

>  <output-unit>
M⁻¹ s⁻¹

>  <kon>
174000

$$$$
>  <binder>
PD-1 A-M10 (antibody, mouse IgG1, V domains shown, Mouse IgG1 kappa, hybridoma supernatant; also called 8H01) VH: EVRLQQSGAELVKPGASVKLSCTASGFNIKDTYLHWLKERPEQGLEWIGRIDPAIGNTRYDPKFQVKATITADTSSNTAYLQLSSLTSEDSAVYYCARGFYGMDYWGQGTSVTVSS VL: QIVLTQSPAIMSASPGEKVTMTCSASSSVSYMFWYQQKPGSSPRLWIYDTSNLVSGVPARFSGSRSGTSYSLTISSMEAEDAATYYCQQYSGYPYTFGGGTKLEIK

>  <output-unit>
M⁻¹ s⁻¹

>  <kon>
227000

$$$$
>  <binder>
PD-1 A-M11 (antibody, V domains shown, Mouse IgG1 kappa, hybridoma supernatant; The VL is therefore uncertain; also called 9B04) VH: EVQLQQSGAEVVKPGASVKLSCTASGFNIKDTYMHWVKQRPEQGLEWIGRIDPAIGNPKYDPKFQGRATITADTSSNTAYLQLSSLTSEDTAVYYCASGFYAMDCWGQGTSVTVSS VL: QIVLTQSPAIMSASPGEKVTMTCSASSSITYMFWYQQKPGSSPRLWIYDTSNLVSGVPARFSGSKSGTSYSLTITSMEAEDAATYYCQQYSGYPSTFGSGTKLEIK

>  <output-unit>
M⁻¹ s⁻¹

>  <kon>
346000

$$$$

Now examine the next entry.
In: Return reported kon; argument: PD-1 A-M1 (antibody, mouse IgG1, V domains shown, Mouse IgG1 kappa, tested as hybridoma supernatant; also called 2C08) VH: EVQLQQSGAELVKPGASVKLSCTASGFNIKDTYMHWVKQRPEQGLEWIGRIDPAIDNTKYDPKFQGKATITADTSSNTAYLQLSSLTSEDTAVYYCASGFYTMDYWGQGTSVTVSS VL: QIVLTQSPAIMSASPGEKVTMTCSASSSVTYMYWFQQKPGSSPRLWIYDTSNLVSGVPARFSGSRSGTSYSLTISSMEAEDAATYYCQQYSGHPSSFGSGTKLEIK
Out: 3060
